assay setup: 1 h, 10 µM, pH 7.4
Each item that follows carries a reported human intestinal hydrolysis relative to Internal Prodrug Compound A.
property: human intestinal hydrolysis relative to Internal Prodrug Compound A

| compound | observed measurement |
| --- | --- |
| Cl.NCC(=O)N[C@@]1(C(=O)O)C[C@@H](Sc2nnc[nH]2)[C@H]2[C@H](C(=O)O)[C@H]21 [Example 5] | 35% |
| N[C@@]1(C(=O)OCc2ccccc2)C[C@@H](Sc2nnc[nH]2)[C@H]2[C@H](C(=O)OCc3ccccc3)[C@H]21 [Example 6] | 2% |
| CC(C)C[C@H](N)C(=O)N[C@@]1(C(=O)O)C[C@@H](Sc2nnc[nH]2)[C@H]2[C@H](C(=O)O)[C@H]21.Cl [Example 4] | 45% |
| C[C@H](N)C(=O)N[C@@]1(C(=O)O)C[C@@H](Sc2nnc[nH]2)[C@H]2[C@H](C(=O)O)[C@H]21.Cl [Example 2] | 61% |
| CSCC[C@H](N)C(=O)N[C@@]1(C(=O)O)C[C@@H](Sc2nnc[nH]2)[C@H]2[C@H](C(=O)O)[C@H]21.Cl [Example 3] | 53% |

---

target of assay: hPepT1 (Homo sapiens)
test details: In Vitro PepT1 GlySar Inhibition Screen and IC50 Determination
assay setup: 0.0625 to 25 mM, PepT1 transfected HeLa cells; read-out: hPepT1 [3H]Gly-Sar uptake inhibition IC50
pIC50: −log10 of the molar value.
# Lookup of reported pIC50 keyed by entry

| compound | pIC50 |
| --- | --- |
| CSCC[C@H](N)C(=O)N[C@@]1(C(=O)O)C[C@@H](Sc2nnc[nH]2)[C@H]2[C@H](C(=O)O)[C@H]21.Cl [Example 3, hydrochloride] | 2.27 |
| C[C@H](N)C(=O)N[C@@]1(C(=O)O)C[C@@H](Sc2nnc[nH]2)[C@H]2[C@H](C(=O)O)[C@H]21.Cl [Example 2, hydrochloride] | 2.74 |

---

target of assay: human mGlu2 receptor (Homo sapiens, UniProt Q14416)
Construct: co-transfected with rat EAAT1 and Galpha15
Sequence (Q14416 19-872): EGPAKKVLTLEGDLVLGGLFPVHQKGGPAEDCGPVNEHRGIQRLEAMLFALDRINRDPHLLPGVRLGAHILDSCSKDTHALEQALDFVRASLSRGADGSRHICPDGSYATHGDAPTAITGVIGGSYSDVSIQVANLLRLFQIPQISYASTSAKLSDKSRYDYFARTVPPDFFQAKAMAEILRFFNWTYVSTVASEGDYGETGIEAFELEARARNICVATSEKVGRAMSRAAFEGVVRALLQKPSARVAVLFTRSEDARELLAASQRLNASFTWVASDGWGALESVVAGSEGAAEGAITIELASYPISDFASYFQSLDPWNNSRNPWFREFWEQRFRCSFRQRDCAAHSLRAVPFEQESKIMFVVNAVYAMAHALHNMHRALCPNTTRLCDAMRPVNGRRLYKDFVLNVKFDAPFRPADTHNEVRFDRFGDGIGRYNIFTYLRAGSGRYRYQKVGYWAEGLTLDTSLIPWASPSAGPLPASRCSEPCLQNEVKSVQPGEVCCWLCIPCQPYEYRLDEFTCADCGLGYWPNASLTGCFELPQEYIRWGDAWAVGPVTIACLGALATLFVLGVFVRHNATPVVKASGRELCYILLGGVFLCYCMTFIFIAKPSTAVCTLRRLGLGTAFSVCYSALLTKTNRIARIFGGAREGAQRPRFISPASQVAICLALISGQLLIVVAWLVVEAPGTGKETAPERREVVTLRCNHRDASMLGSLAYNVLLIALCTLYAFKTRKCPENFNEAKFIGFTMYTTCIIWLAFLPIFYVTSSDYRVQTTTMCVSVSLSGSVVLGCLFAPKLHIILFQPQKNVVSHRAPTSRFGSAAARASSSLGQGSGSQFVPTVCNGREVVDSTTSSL
test details: Human mGlu2 Agonist FLIPR Assay
assay setup: hmGlu2 FLIPR assay, AV-12 cells, relative EC50
property: EC50 (nM)

| compound | unit annotation | limit qualifier | observed measurement |
| --- | --- | --- | --- |
| N[C@@]1(C(=O)O)C[C@@H](Sc2nnc[nH]2)[C@H]2[C@H](C(=O)O)[C@H]21 | nM | = | 23 |
| N[C@]1(C(=O)O)C[C@H](Sc2ccccc2)[C@@H]2[C@@H](C(=O)O)[C@@H]21 (racemic) | nM | > | 25000 |

---

target of assay: hPepT1 (Homo sapiens)
Construct: expressed in transfected cells; host or cells: HeLa cells (ATCC), transient transfection with FuGene6
Sequence (P46059 1-708): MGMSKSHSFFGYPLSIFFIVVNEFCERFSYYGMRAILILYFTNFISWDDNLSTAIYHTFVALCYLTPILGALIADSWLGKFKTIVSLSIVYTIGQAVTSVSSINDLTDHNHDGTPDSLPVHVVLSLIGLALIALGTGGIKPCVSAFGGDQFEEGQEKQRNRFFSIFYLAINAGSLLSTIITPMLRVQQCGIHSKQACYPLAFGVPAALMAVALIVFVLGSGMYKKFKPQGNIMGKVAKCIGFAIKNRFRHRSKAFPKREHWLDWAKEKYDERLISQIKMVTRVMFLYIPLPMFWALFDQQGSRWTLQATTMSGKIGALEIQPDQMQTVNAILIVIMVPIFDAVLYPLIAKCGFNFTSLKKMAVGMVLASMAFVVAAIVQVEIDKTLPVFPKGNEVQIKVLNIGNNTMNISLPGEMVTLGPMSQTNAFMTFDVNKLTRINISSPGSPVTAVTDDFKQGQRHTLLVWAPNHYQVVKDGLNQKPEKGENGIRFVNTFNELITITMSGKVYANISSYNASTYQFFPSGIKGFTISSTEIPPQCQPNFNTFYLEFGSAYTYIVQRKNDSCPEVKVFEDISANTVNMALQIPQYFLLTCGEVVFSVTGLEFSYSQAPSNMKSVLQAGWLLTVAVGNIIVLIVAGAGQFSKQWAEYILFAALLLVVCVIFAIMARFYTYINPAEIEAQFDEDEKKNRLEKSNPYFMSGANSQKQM
test details: In Vitro PepT1 GlySar Inhibition Screen and IC50 Determination
Type: cell-based
assay setup: 5 mM, pH 6.0, PepT1 transiently transfected HeLa cells; read-out: hPepT1 [3H]Gly-Sar uptake inhibition at 5 mM
property: inhibition at 5000 µM (%)

| molecule | property | observed measurement |
| --- | --- | --- |
| CSCC[C@H](N)C(=O)N[C@@]1(C(=O)O)C[C@@H](Sc2nnc[nH]2)[C@H]2[C@H](C(=O)O)[C@H]21.Cl [Example 3, hydrochloride] | inhibition at 5000 µM | 51 |
| Cl.NCC(=O)N[C@@]1(C(=O)O)C[C@@H](Sc2nnc[nH]2)[C@H]2[C@H](C(=O)O)[C@H]21 [Example 5, hydrochloride] | inhibition at 5000 µM | 44 |
| CC(C)C[C@H](N)C(=O)N[C@@]1(C(=O)O)C[C@@H](Sc2nnc[nH]2)[C@H]2[C@H](C(=O)O)[C@H]21.Cl [Example 4, hydrochloride] | inhibition at 5000 µM | 32 |
| C[C@H](N)C(=O)N[C@@]1(C(=O)O)C[C@@H](Sc2nnc[nH]2)[C@H]2[C@H](C(=O)O)[C@H]21.Cl [Example 2, hydrochloride] | inhibition at 5000 µM | 38 |

Data origin, for the record: patent US8318184B2
